- Cond: rat; liver microsomes; pH 7.4; 15.0 min; 1.0 µM
Would you please tag the item true when its half-life is 10 min or above, and false when it is below?

* O=c1cc(-c2ccccc2)oc2cc(O)cc(O)c12 | false
* Cc1c(-c2cccc(NC(=O)c3ccc(F)c(F)c3)c2)nc2ncccn12 | true
* CNc1cc(-c2nc(Nc3ccc(F)c(F)c3)c3ccccc3n2)ccn1 | false
* Cc1cc(NS(=O)(=O)c2ccc(N(C)C(=O)Cc3ccc(Cl)c(Cl)c3)cc2)no1 | true
* CN(C)c1ccc(S(=O)(=O)N2CCCCC2)cc1NS(=O)(=O)c1ccc2ccccc2c1 | false
* CCOc1ccc(CCNC(=O)c2cc3sccc3n2Cc2cccc(C)c2)cc1OCC | false
* C=C1C(=O)O[C@H]2[C@@H]1CCC(C)=CCC[C@@]1(C)O[C@@H]21 | true
* O=C(O)[C@H]1O[C@H]1C(=O)O | true
* O=C(CCCN1CCC2(CC1)C(=O)N(Cc1cccc(F)c1)CN2c1ccccc1)c1ccc(F)cc1 | false
* CCC1=Nc2cc(C(=O)NC3CCCC3)ccc2Sc2ccc(Cl)cc21 | false
* COc1cc(C(=O)NC2CCCc3c2[nH]c2ccccc32)cc(OC)c1OC (configuration not stated) | true
* CCCCCCN(CCCCCC)C(=O)Cc1c(-c2ccc(F)cc2)[nH]c2ccccc12 | false
* Cc1nnc(-c2ccccc2C(C)C)nc1NCc1ccc(-c2cccnc2)cc1 | false
* NC(=O)C1CCN(c2ncc(-c3cccc(N4CCCC4)c3)s2)CC1 | true
* COc1ccccc1N1CCN(C2CCCCC2NS(=O)(=O)c2ccccc2)CC1 (configuration not stated) | false
* O=S(=O)(c1ccccc1)N1CCCCC1CCc1ccccc1 (configuration not stated) | false
* Cc1cccc(N2CCN(C(=O)c3ccc4c(c3)C(O)CCCCCN4C)CC2)c1 (configuration not stated) | false
* Cc1ccc2c(c1)N(S(=O)(=O)c1cc(-c3onc(C)c3C)ccc1C)CCO2 | false
* O=S(=O)(Nc1nc2ccccc2s1)c1ccc(NCc2ccc(Br)cc2O)cc1 | true
* COC(=O)c1ccc2c(c1)nc1n2[C@@H](CNC(C)=O)COC1 | true
* COc1ccc2[nH]c(=O)c(-c3noc(-c4ccccc4)n3)cc2c1 | true
* COc1ccc(-n2nc(C3CCCN(C(=O)Cc4ccccn4)C3)[nH]c2=O)cc1 (configuration not stated) | true
* Cc1ccc(S(=O)(=O)Nc2ncccc2C(=O)Nc2nc(-c3ccccc3)cs2)cc1 | true
* CNc1oc(-c2cccc(Cl)c2Cl)nc1C#N | false
* CCN(CC)S(=O)(=O)c1ccc(N2CCCC2)c(NS(=O)(=O)c2ccc(C)cc2)c1 | false
* Cc1ccc(-c2csc(NC(=O)c3ccccc3NS(=O)(=O)c3ccc(C)cc3)n2)cc1 | false
* O=c1cc(-c2nc(Nc3ccc(F)c(F)c3)c3ccccc3n2)cc[nH]1 | true
* CN1C(=O)c2ccccc2[S@](=O)c2ccc(C(=O)NCCN3CCCC3)cc21 | true
* Cc1cc(C)c(C(=O)Nc2cccc([S+](=O)([O-])N3CCCC3)c2)[nH]1 | false
* CC(=O)c1c(C)[nH]c(C(=O)Nc2ccc(OCCCN(C)C)c(S(=O)(=O)Nc3ccc(Br)cc3)c2)c1C | true
* O=C(N/N=C/c1ccc(O)c(O)c1)c1cc2ccccc2cc1O | true
* CCCc1cc(C)[nH]c(=O)c1CNC(=O)c1cc(-c2ccc(N3CCN(C(C)C)CC3)nc2)cc2c1cnn2C(C)C | true
* CCc1ccc2oc(NC3=NC(c4[nH]ncc4Cl)C4=C(CCCC4=O)N3)nc2c1 (configuration not stated) | true
* Cc1cc(Nc2ccc(Br)c(C)c2)n2nc(C)nc2n1 | false
* O=C(Nc1ccccc1)C1CCN(c2ncc(-c3ccc4c(c3)OCCCO4)s2)CC1 | false
* O=C1Nc2cccc(Cl)c2/C1=C\c1cc(Cl)c(O)c(Cl)c1 | true
* COC(=O)c1ccc2c(C(=Nc3ccc(N(C)C(=O)CN4CCN(C)CC4)cc3)c3ccccc3)c(O)[nH]c2c1 | true
* CC(C)CNc1ncnc2onc(-c3ccc(Cl)cc3)c12 | true
* COc1ncccc1-c1cc2c(ccn2C(C)C)c(C(=O)NCc2c(C)cc(C)[nH]c2=O)n1 | false
* Oc1ccc(Nc2nc(-c3ccncc3)nc3ccccc23)cc1F | true
* COc1ccc(-c2ccc3ncc4c(c3c2)n(-c2ccc(N3CCNCC3)c(C(F)(F)F)c2)c(=O)n4C)cn1 | true
